Test system: Yellow fever virus
Test: Antiviral activity against YFV infected in BHK21 cells assessed as inhibition of virus-induced cytopathic effect at 15 uM
Type: functional
Conditions: BHK-21
Measured inhibition at 15 µM of individual entries
outcomeMeasure: inhibition at 15 µM (%)

INSERT INTO assay_data (molsmiles, outcomemeasure, unitsofmeasure, numericvalue) VALUES
  ('Nc1ncnc2c1ccn2Cc1cn([C@H]2C[C@H](O)[C@@H](CO)O2)nn1', 'inhibition at 15 µM', '%', 11),
  ('Nc1nc(Cl)c2ccn(Cc3cn([C@H]4C[C@H](O)[C@@H](CO)O4)nn3)c2n1', 'inhibition at 15 µM', '%', 13.3),
  ('Nc1ncnc2c1ncn2Cc1cn([C@H]2C[C@H](O)[C@@H](CO)O2)nn1', 'inhibition at 15 µM', '%', 8.36),
  ('C#CCn1ccc(=O)[nH]c1=O', 'inhibition at 15 µM', '%', -11.3),
  ('O=c1ccn(Cc2cn([C@H]3C[C@H](O)[C@@H](CO)O3)nn2)c(=O)[nH]1', 'inhibition at 15 µM', '%', 4.59),
  ('O=C(Nc1ncnc2c1ncn2Cc1cn([C@H]2C[C@H](O)[C@@H](CO)O2)nn1)c1ccccc1', 'inhibition at 15 µM', '%', 8.76),
  ('C#CCn1ccc2c(Cl)ncnc21', 'inhibition at 15 µM', '%', -0.25),
  ('C#CCn1cnc2c(N)ncnc21', 'inhibition at 15 µM', '%', -2.81),
  ('Nc1ccn(Cc2cn([C@H]3C[C@H](O)[C@@H](CO)O3)nn2)c(=O)n1', 'inhibition at 15 µM', '%', 7.89),
  ('OC[C@H]1O[C@@H](n2cc(Cn3cnc4c3ncn3ccnc43)nn2)C[C@@H]1O', 'inhibition at 15 µM', '%', 4.39);
